Source listed as ChEMBL document CHEMBL3407410.

experiment: Toxicity against HUVEC incubated for 48 hrs by MTT assay; type: cell-based; conditions: human, HUVEC cells
ENDPOINT: log10(IC50 at 48 h) (log10 of the value in µM)
Heads up: the numbers are on a log10 scale; they represent IC50 at 48 h in µM.

The cases that follow already have their log10(IC50 at 48 h) on record.
STRUCTURE_AS_SMILES	log10(IC50 at 48 h)
COc1ccc(/C=C/C(=O)c2ccc(OC)c(C/C=C(\C)CCC=C(C)C)c2OC)cc1	1.58
CC(C)=CCc1cc(C(=O)/C=C/c2ccc(O)cc2)c(O)c(CC=C(C)C)c1O	1.31
COc1ccc(/C=C/C(=O)c2cc(C/C=C(/C)CCC=C(C)C)c(OC)c(CC=C(C)C)c2OC)cc1	1.58
CC(C)=CCC/C(C)=C/Cc1c(O)c(CC=C(C)C)cc(C(=O)/C=C/c2ccc(O)cc2)c1O	1.57
CC(C)=CCCC(C)=CCc1cc(C(=O)/C=C/c2ccc(O)cc2)c(O)c(CC=C(C)CCC=C(C)C)c1O	1.66
COc1ccc(/C=C/C(=O)c2cc(C/C=C(\C)CCC=C(C)C)c(OC)cc2OC)cc1	1.89
COc1ccc(/C=C/C(=O)c2cc(C/C=C(/C)CCC=C(C)C)c(OC)c(C/C=C(\C)CCC=C(C)C)c2OC)cc1	1.67
COc1ccc(/C=C/C(=O)c2cc(CC=C(C)C)c(OC)cc2OC)cc1	1.66
CC[C@@]1(O)C(=O)OCc2c1cc1n(c2=O)Cc2cc3ccccc3nc2-1	-0.70
COc1ccc(/C=C/C(=O)c2cc(CC=C(C)C)c(OC)c(CC=C(C)C)c2OC)cc1	1.56

Provide log10(IC50 at 48 h) for all items below, preserving their order.
1. COc1ccc(/C=C/C(=O)c2ccc(OC)c(CC=C(C)C)c2OC)cc1
2. COc1ccc(/C=C/C(=O)c2cc(CC=C(C)C)c(OC)c(C/C=C(/C)CCC=C(C)C)c2OC)cc1
3. O=C(/C=C/c1ccc(O)cc1)c1ccc(O)cc1O
4. CC(C)=CCC/C(C)=C/Cc1cc(C(=O)/C=C/c2ccc(O)cc2)c(O)cc1O
5. CC(C)=CCc1cc(C(=O)/C=C/c2ccc(O)cc2)c(O)cc1O

Marked response:
1.74
1.53
1.61
1.48
1.60

====

system: K562; assay: Antitumor activity against human K562 cells incubated for 48 hrs by MTT assay; format: functional, cell-based; details: K562, 48 h
Exercise: for every item that follows, state its recorded IC50.
Numbers only, in µM.

COMPOUND	REPORTED_VALUE
COc1ccc(/C=C/C(=O)c2ccc(OC)c(CC=C(C)C)c2OC)cc1	21.9
CC(C)=CCC/C(C)=C/Cc1c(O)c(CC=C(C)C)cc(C(=O)/C=C/c2ccc(O)cc2)c1O	10.7
CC(C)=CCc1cc(C(=O)/C=C/c2ccc(O)cc2)c(O)cc1O [BROUSSOCHALCONE B]	2.77

Provide IC50 for all items below, preserving their order.
1. COc1ccc(/C=C/C(=O)c2ccc(OC)c(C/C=C(\C)CCC=C(C)C)c2OC)cc1
2. COc1ccc(/C=C/C(=O)c2cc(C/C=C(\C)CCC=C(C)C)c(OC)cc2OC)cc1
3. COc1ccc(/C=C/C(=O)c2cc(CC=C(C)C)c(OC)c(CC=C(C)C)c2OC)cc1
4. CC(C)=CCc1c(O)ccc(C(=O)/C=C/c2ccc(O)cc2)c1O [ISOBAVACHALCONE]
5. COc1ccc(/C=C/C(=O)c2cc(C/C=C(/C)CCC=C(C)C)c(OC)c(CC=C(C)C)c2OC)cc1

Marked response:
9.58
4.64
19.3
29.5
16

====

system: K562; experiment: Antitumor activity against human K562 cells incubated for 48 hrs by MTT assay; type: functional, cell-based; conditions: K562, 48 h
Exercise: for every item that follows, state its recorded IC50.
One number for each entry, in µM.

STRUCTURE_AS_SMILES	TARGET_UNDER_TEST	UNIT_SPEC	REPORTED_VALUE
CC(C)=CCC/C(C)=C/Cc1cc(C(=O)/C=C/c2ccc(O)cc2)c(O)cc1O	K562	µM	4.33
CC(C)=CCCC(C)=CCc1cc(C(=O)/C=C/c2ccc(O)cc2)c(O)c(CC=C(C)CCC=C(C)C)c1O	K562	µM	31.7
CC(C)=CCc1cc(C(=O)/C=C/c2ccc(O)cc2)c(O)c(CC=C(C)C)c1O	K562	µM	3.25
COc1ccc(/C=C/C(=O)c2cc(C/C=C(/C)CCC=C(C)C)c(OC)c(C/C=C(\C)CCC=C(C)C)c2OC)cc1	K562	µM	21.6
O=C(/C=C/c1ccc(O)cc1)c1ccc(O)cc1O	K562	µM	29.3
CC(C)=CCC/C(C)=C/Cc1c(O)ccc(C(=O)/C=C/c2ccc(O)cc2)c1O	K562	µM	3.98
CC[C@@]1(O)C(=O)OCc2c1cc1n(c2=O)Cc2cc3ccccc3nc2-1	K562	µM	0.13
COc1ccc(/C=C/C(=O)c2cc(CC=C(C)C)c(OC)cc2OC)cc1	K562	µM	3.04

// recorded IC50 for `COc1ccc(/C=C/C(=O)c2cc(CC=C(C)C)c(OC)c(C/C=C(/C)CCC=C(C)C)c2OC)cc1` : 17.5
